# System: CCRIS mutagenicity, Ames/micronucleus/aberration tests
# assay name: CCRIS mutagenicity studies
# condition info: Test System: AMES SALMONELLA TYPHIMURIUM; Strain/Indicator: TA98; Metabolic Activation: S-9; Method: STANDARD PLATE
Activity calls are given as the source filed them. No rule for the calls is given here.
Outcome codes: label 1 = active, label 0 = inactive

{"molecule": "CN(C(=O)CCCCl)c1snc2ccccc12", "experimental target": "CCRIS mutagenicity, Ames/micronucleus/aberration tests", "class label": "label 0"}
{"molecule": "C=CCc1ccc(O)c(OC)c1", "experimental target": "CCRIS mutagenicity, Ames/micronucleus/aberration tests", "class label": "label 0"}
{"molecule": "C=Cc1ccc(O)c(C=C)c1", "experimental target": "CCRIS mutagenicity, Ames/micronucleus/aberration tests", "class label": "label 0"}
{"molecule": "CCCNc1snc2ccccc12", "experimental target": "CCRIS mutagenicity, Ames/micronucleus/aberration tests", "class label": "label 0"}
{"molecule": "O=Cc1ccco1", "experimental target": "CCRIS mutagenicity, Ames/micronucleus/aberration tests", "class label": "label 0"}
{"molecule": "CCCN(C(=O)CCCl)c1snc2ccccc12", "experimental target": "CCRIS mutagenicity, Ames/micronucleus/aberration tests", "class label": "label 0"}
{"molecule": "CCN(C(=S)[S-])c1ccccc1.CCN(C(=S)[S-])c1ccccc1.[Zn+2]", "experimental target": "CCRIS mutagenicity, Ames/micronucleus/aberration tests", "class label": "label 0"}
{"molecule": "CC(C)NCC(O)COc1cccc2c1OCC(O)C2 (centres undefined)", "experimental target": "CCRIS mutagenicity, Ames/micronucleus/aberration tests", "class label": "label 0"}
{"molecule": "CC1=CC(C)(C)Nc2ccccc21", "experimental target": "CCRIS mutagenicity, Ames/micronucleus/aberration tests", "class label": "label 0"}
{"molecule": "O=[N+]([O-])c1ccc(Oc2c(Cl)cc(Cl)cc2Cl)cc1", "experimental target": "CCRIS mutagenicity, Ames/micronucleus/aberration tests", "class label": "label 0"}
{"molecule": "Nc1snc2ccc(Cl)cc12", "experimental target": "CCRIS mutagenicity, Ames/micronucleus/aberration tests", "class label": "label 1"}
{"molecule": "O=[N+]([O-])c1ccc2c(c1)Cc1ccccc1-2", "experimental target": "CCRIS mutagenicity, Ames/micronucleus/aberration tests", "class label": "label 1"}
{"molecule": "O=[N+]([O-])c1ccc(/C=C/c2cccc([N+](=O)[O-])c2)cc1", "experimental target": "CCRIS mutagenicity, Ames/micronucleus/aberration tests", "class label": "label 1"}
{"molecule": "O=C(O)[C@@H]1CS[C@H](c2ccccc2O)N1C(=O)CCS", "experimental target": "CCRIS mutagenicity, Ames/micronucleus/aberration tests", "class label": "label 0"}
